test system: nucleoside uptake (3H-Thymidine); test: Nucleoside uptake assay (uptake) using 3H-Thymidine, IC50, cell line as indicated in each table (none given in Table 8); assay type: cell-based; settings: 3H-Thymidine uptake; cell line not given
assayReadout: IC50 (µM)

A: COc1ccc(CC[C@H]2OC(=O)[C@@H]3CCCCN3C(=O)C(=O)C(C)(C)COC(=O)/C=C/CCN(C)C(=O)[C@H](C(C)C)N(C)C(=O)[C@@H]3CCCN3C(=O)[C@@H](Cc3ccccc3)N(C)C(=O)[C@H](C)NC(=O)COc3cccc2c3)cc1OC
B: COc1ccc(CC[C@H]2OC(=O)[C@@H]3CCCCN3C(=O)C(=O)C(C)(C)COC(=O)/C=C/CCN(C)C(=O)[C@H](C(C)C)N(C)C(=O)[C@@H]3CCCN3C(=O)[C@@H](Cc3ccccc3)N(C)C(=O)[C@H](c3ccccc3)NC(=O)CCC(=O)Nc3cccc2c3)cc1OC
### Prompt // returns A or B , whichever has the lower IC50 Lab log: write the label of the selected item as the result.
### Response B
(B: 0.0165 µM, A: 0.0335 µM)
